These measurements were taken from PubChem BioAssay (NCI).

Test system: SNB-75 CNS
Assay: NCI-60 one-dose screen, 48 h
Conditions: 10 µM unless noted
Experimental: Growth inhibition of the SNB-75 human tumor cell line is measured as a screen for anti-cancer activity. Cells are grown in 96 well plates and exposed to the test compound for 48 hours. Compounds are tested at a single concentration, which is 10^-5 M for most compounds. The reported endpoint is percent growth (GI% or GIPRCNT), where numbers from 0 - 100% represent growth inhibition, and numbers from -100% - 0 represent cell death. For example, a value of 40 represents 60% growth inhibition. […]
About 83,000 compounds went through this panel and 20% of them were active in at least one assay; those are over-represented in the sample as a whole. The source made the active and inactive calls. The calls were made as follows: active = growth percent below 10; inactive = the rest.
Field 'call' accepts active, inactive

{"columns": ["MOLECULE", "LABEL VALUE"],
 "data": [
  ["O=C(Nc1ccccc1N1CCCC1=O)c1oc2ccc(F)cc2c1-c1cnn(-c2ccccc2)c1", "inactive"],
  ["CCCCCCCCCCCCCCCCCC1=NC(C)(C)CN1CC(C)O (centres undefined)", "inactive"],
  ["Cn1cc(-c2csc(-c3c[nH]c4ccc(F)cc34)n2)c2ccnc(Cl)c21", "inactive"],
  ["COC(=O)c1c2c(c(C)[n+]([O-])c1C)C(=O)C(NCc1ccc(OC)cc1)=CC2=O", "inactive"],
  ["CN1CCN(C(=O)C(C)(C)c2ccc(C(=O)Nc3cn4cc(-c5ccncc5)ccc4n3)cc2)CC1", "active"],
  ["N=C(N)c1ccc(-c2ccc(-c3cc(Cl)cc(Cl)c3)s2)nc1", "inactive"]
]}

// outcome(item) with item = COc1ccc(/C(C)=C(\c2ccc(Cl)cc2)c2ccc(OCCN3CCCCC3)cc2)cc1 inactive

// outcome(item) with item = Fc1cc(Nc2ccc3c(OCCCN4CCOCC4)cccc3n2)ccc1Cl inactive

// outcome(item) with item = C=C1C(=O)O[C@H]2[C@H]1CC/C(Cn1cc(CCC)nn1)=C\CC[C@@]1(C)O[C@@H]21 inactive

* * *

test system: SF-539 CNS; test: NCI-60 one-dose screen, 48 h (100 = growth as untreated, 0 = no growth, -100 = all killed); details: 10 µM unless noted
About 83,000 compounds went through this panel and 20% of them were active in at least one assay; those are over-represented in the sample as a whole.
Recorded growth for the following compounds
# value in %; strip the unit string

Some solved cases for reference:
{"columns": ["COMPOUND", "TARGET", "MEASUREMENT UNIT", "growth"],
 "data": [
  ["COc1cc(/C=C2\\CN(S(=O)(=O)c3ccccc3)C/C(=C\\c3cc(CN4CCCCC4)c(O)c(OC)c3)C2=O)cc(CN2CCCCC2)c1O", "SF-539 CNS", "%", -84.6],
  ["CC1CCN(C(=O)CCCl)c2ccccc21 (centres undefined)", "SF-539 CNS", "%", 126],
  ["Cc1ccc(-c2nc3nc(-c4ccccc4)nc(N4CCCN(S(C)(=O)=O)CC4)c3o2)cc1", "SF-539 CNS", "%", 30.7],
  ["Cn1cc(-c2nn3cc(-c4cccs4)nc3s2)c2cc(F)ccc21", "SF-539 CNS", "%", 24.3],
  ["COc1ccc(C(=O)/C=C/c2ccc(N3CCCCC3)cc2)cc1OC", "SF-539 CNS", "%", 98.2]
]}

Requested read-out growth, target or system SF-539 CNS, entry CN1CCN(C(=O)C(C)(C)c2ccc(C(=O)Nc3cn4cc(-c5ccncc5)ccc4n3)cc2)CC1 -1.81

Requested read-out growth, target or system SF-539 CNS, entry COc1cc(/C=C/C(=O)/C=C(O)/C=C/c2ccc(OC(=O)C34CC5CC(CC(C5)C3)C4)c(OC)c2)ccc1OC(=O)C12CC3CC(CC(C3)C1)C2 95.2

Requested read-out growth, target or system SF-539 CNS, entry O=C1Nc2c(C(=O)O)cccc2/C1=N/c1n[nH]c(=S)s1 91.9

Requested read-out growth, target or system SF-539 CNS, entry CCCCNC(=O)c1cc([N+](=O)[O-])cc(C2CCCCC2)c1O 47.9
